tested on: blackgrass (Alopecurus myosuroides); test: Test A1 preemergence, blackgrass; assay type: in vivo; conditions: 125 g ai/ha, 0 to 100 scale, 0 no effect, 100 complete control
attribute_measured: Plant response rating, Blackgrass

{"columns": ["compound", "result_value"],
 "data": [
  ["COc1cccc2c1C(=O)N(c1cc(N(COC(=O)C(C)(C)C)S(=O)(=O)Cl)c(C)cc1C)C2 [Compound 413]", 20],
  ["COCC1CC(c2cc(N(COC(=O)C(C)(C)C)S(=O)(=O)C(F)(F)F)c(C)cc2C)=NO1 (centres unmarked) [Compound 338]", 0],
  ["Cc1cc(C)c(C2=NOC3(C)CCCC23)cc1NS(=O)(=O)C(F)(F)F (centres unmarked) [Compound 340]", 90],
  ["CCC1ON=C(c2cc(N(COC(=O)C(C)(C)C)S(=O)(=O)C(F)(F)F)c(C)cc2C)C1CC (centres unmarked) [Compound 344]", 30],
  ["Cc1cc(C)c(N2CCC3(CCC(C)CC3)C2=O)cc1NS(=O)(=O)C(F)(F)F (centres unmarked) [Compound 402]", 80],
  ["Cc1c(NS(=O)(=O)C(F)(F)F)cc(C(=O)N2CCCCC2)c(C)c1C [Compound 326]", 0],
  ["Cc1c(C(=O)N2CCC(F)CC2)cc(N(COC(=O)C(C)(C)C)S(=O)(=O)C(F)(F)F)c(C)c1C [Compound 361]", 0],
  ["COc1cnn(-c2cc(NS(=O)(=O)C(F)(F)F)c(C)cc2C)c(=O)c1OC [Compound 282]", 60],
  ["CCc1cc(C)c(C2=NOC3(CCCC3)C2)cc1NS(=O)(=O)C(F)(F)F [Compound 311]", 40],
  ["CCC1ON=C(c2cc(N(C(=O)OCC(C)C)S(=O)(=O)C(F)(F)F)c(C)cc2C)C1CC (centres unmarked) [Compound 345]", 70],
  ["CCOC(=O)N(c1cc(C(=O)N2C[C@@H](C)O[C@@H](C)C2)c(C)c(C)c1C)S(=O)(=O)C(F)(F)F [Compound 332]", 0],
  ["Cc1c(C(=O)N2CCCCC2)cc(N(COC(=O)C(C)(C)C)S(=O)(=O)C(F)(F)F)c(C)c1C [Compound 329]", 0],
  ["CCOC(=O)N(c1cc(C(=O)N2CCOCC2)c(C)c(C)c1C)S(=O)(=O)C(F)(F)F [Compound 325]", 40],
  ["C#CCN(C)C(=O)c1cc(NS(=O)(=O)C(F)(F)F)c(C)c(C)c1C [Compound 368]", 40],
  ["CCOC(=O)N(c1cc(C(=O)N2CCC(F)(F)CC2)c(C)cc1C)S(=O)(=O)C(F)(F)F [Compound 351]", 50],
  ["Cc1c(NS(=O)(=O)C(F)(F)F)cc(C(=O)N2CCOCC2)c(C)c1Cl [Compound 290]", 70],
  ["Cc1c(NS(=O)(=O)C(F)(F)F)cc(C(=O)N2CCC(F)CC2)c(C)c1C [Compound 358]", 10],
  ["Cc1cc(Br)c(C2=NOC3CCCC23)cc1NS(=O)(=O)C(F)(F)F (centres unmarked) [Compound 302]", 0],
  ["Cc1c(C(=O)N2CCCCC2)cc(NS(=O)(=O)C(F)(F)F)c(Cl)c1F [Compound 333]", 0],
  ["Cc1cc(C)c(C2=NOC3CCCCCC23)cc1NS(=O)(=O)C(F)(F)F (centres unmarked) [Compound 292]", 30]
]}

* * *

test system: barnyardgrass (Echinochloa crus-galli); assay: Test A postemergence, barnyardgrass; type: in vivo; conditions: Postemergence, 125 g ai/ha; 0 to 100 scale (0 no effect, 100 complete control)
Measured Plant response rating, Barnyardgrass of individual entries

{"columns": ["compound", "Plant response rating, Barnyardgrass"],
 "data": [
  ["CCN(CC)C(=O)c1cc(NS(=O)(=O)C(F)(F)F)c(C)cc1C", 10],
  ["Cc1cc(C)c(C(=O)N2CCC3(CCCC3)C2)cc1NS(=O)(=O)C(F)(F)F", 0],
  ["Cc1cc(C)c(N(S(=O)(=O)C(F)(F)F)S(=O)(=O)C(F)(F)F)cc1C(=O)N1CCC(Cl)CC1", 50],
  ["Cc1cc(Cl)c(NS(=O)(=O)C(F)(F)F)cc1C(=O)N1CCOCC1C (centres unmarked)", 90],
  ["COC(=O)N(c1cc(N2CCC3(CCCCC3)C2=O)c(C)cc1C)S(=O)(=O)C(F)(F)F", 0],
  ["Cc1cc(C)c(C2=NOC3(CCC(C)(C)CC3)C2)cc1NS(=O)(=O)C(F)(F)F", 0],
  ["CCC1(CC)CC(c2cc(NS(=O)(=O)C(F)(F)F)c(C)cc2C)=NO1", 20],
  ["Cc1cc(C)c(C2=NOC3(C2)CC(C)CC(C)C3)cc1NS(=O)(=O)C(F)(F)F (single isomer, unassigned)", 60],
  ["Cc1cc(C)c(N(S(=O)(=O)C(F)(F)F)S(=O)(=O)C(F)(F)F)cc1C1=NOC2(CCCC2)C1", 0],
  ["Cc1cc(C(F)(F)F)c(NS(=O)(=O)C(F)(F)F)cc1C(=O)N1CCCCC1", 0],
  ["CSC(=O)N(c1cc(C2=NOC3(CCCC3)C2)c(C)cc1C)S(=O)(=O)C(F)(F)F", 0]
]}

* * *

tested on: soybean (Glycine max); assay: Test A1 preemergence, soybean; type: in vivo; settings: 31 g ai/ha, 0 to 100 scale (0 no effect, 100 complete control)

{"columns": ["molecule", "measured_target", "Plant response rating, Soybean"],
 "data": [
  ["Cc1cc(C)c(N(COC(=O)C(C)C)S(=O)(=O)C(F)(F)F)cc1C1=NOC2CCCC12 (centres unmarked) [Compound 308]", "soybean (Glycine max)", 0],
  ["Cc1c(NS(=O)(=O)C(F)(F)F)cc(C(=O)N2CCC(F)(F)CC2)c(C)c1C [Compound 357]", "soybean (Glycine max)", 0],
  ["Cc1cc(C2CC2)c(C2=NOC3CCCC23)cc1NS(=O)(=O)C(F)(F)F (centres unmarked) [Compound 307]", "soybean (Glycine max)", 0],
  ["Cc1cc(C)c(N(S(=O)(=O)C(F)(F)F)S(=O)(=O)C(F)(F)F)cc1C1=NOC2COCC12 (centres unmarked) [Compound 296]", "soybean (Glycine max)", 20],
  ["Cc1c(NS(=O)(=O)C(F)(F)F)cc(C(=O)N2CCOCC2)c(C)c1C [Compound 289]", "soybean (Glycine max)", 20]
]}

* * *

test system: pigweed (Amaranthus retroflexus); assay: Test A preemergence, pigweed; assay type: in vivo; details: 1000 g ai/ha, 0 to 100 scale (0 no effect, 100 complete control)
Measured Plant response rating, Pigweed of individual entries
attribute_measured: Plant response rating, Pigweed

{"columns": ["compound", "attribute_measured", "result_value"],
 "data": [
  ["Cc1cc(C)c(C(=O)N2CCC(C)CC2)cc1NS(=O)(=O)C(F)(F)F [Compound 264]", "Plant response rating, Pigweed", 80],
  ["COC(=O)C1CCN(C(=O)c2cc(NS(=O)(=O)C(F)(F)F)c(C)cc2C)CC1 [Compound 50]", "Plant response rating, Pigweed", 100],
  ["Cc1cc(C)c(C(=O)N2CCC(Cl)CC2)cc1NS(=O)(=O)C(F)(F)F [Compound 242]", "Plant response rating, Pigweed", 100]
]}

* * *

system: ragweed (common ragweed, Ambrosia artemisiifolia); experiment: Test A postemergence, ragweed; assay type: in vivo; conditions: Postemergence, 500 g ai/ha; visual injury, 0 to 100 scale (0 no effect, 100 complete control), approx. 10 days
Measured Plant response rating, Ragweed of individual entries
attribute_measured: Plant response rating, Ragweed

{"columns": ["molecule", "attribute_measured", "result_value"],
 "data": [
  ["Cc1cc(Cl)c(NS(=O)(=O)C(F)(F)F)cc1C(=O)N1CC(C)OC(C)C1 (stereo not shown)", "Plant response rating, Ragweed", 80],
  ["CCn1cc(-c2cc(N(S(=O)(=O)C(F)(F)F)S(=O)(=O)C(F)(F)F)c(C)cc2C)c(=O)n(CC)c1=O", "Plant response rating, Ragweed", 60],
  ["Cc1cc(Cl)c(NS(=O)(=O)C(F)(F)F)cc1C(=O)N1CCSCC1", "Plant response rating, Ragweed", 100],
  ["COc1cnn(-c2cc(N(S(=O)(=O)C(F)(F)F)S(=O)(=O)C(F)(F)F)c(C)cc2C)c(=O)c1OC", "Plant response rating, Ragweed", 40]
]}

* * *

Measured Plant response rating, Soybean of individual entries
tested on: soybean (Glycine max); test: Test A1 preemergence, soybean; assay type: in vivo; settings: 31 g ai/ha, 0 to 100 scale (0 no effect, 100 complete control)

{"columns": ["compound", "Plant response rating, Soybean"],
 "data": [
  ["Cc1cc(C)c(-n2nccc(C)c2=O)cc1NS(=O)(=O)C(F)(F)F", 0],
  ["CCCCOC1CC(c2cc(NS(=O)(=O)C(F)(F)F)c(C)cc2C)=NO1 (centres unmarked)", 0],
  ["CCOC(=O)N(c1cc(C(=O)N2CCC(c3ccccc3)CC2)c(C)cc1C)S(=O)(=O)C(F)(F)F", 0],
  ["CCC1ON=C(c2cc(N(C(=O)OCC(C)C)S(=O)(=O)C(F)(F)F)c(C)cc2C)C1CC (centres unmarked)", 30],
  ["CCC1CC(c2cc(NS(=O)(=O)C(F)(F)F)c(C)cc2C)=NO1 (centres unmarked)", 0]
]}
